Listed here are compounds together with their documented logD at 0.5 h.
# Assay Protocol: 1-Octanol-phosphate buffered saline distribution coefficient, log D of the compound at pH 7.4 after 30 mins by shake flask method
# Format: physicochemical

# Compound, logD at 0.5 h
data = [
    ("CCOc1cc(C(=O)O)cc(NC(=O)c2nc3c(s2)CN(C(C)C)CC3)c1CCC(=O)Nc1ccc(Cl)cc1", 1.62),
    ("CCN1CCc2nc(C(=O)Nc3cc(C(=O)O)ccc3CNC(=O)c3ccc(Cl)s3)sc2C1", 0.14),
    ("CC(C)N1CCc2nc(C(=O)Nc3cc(C(=O)O)ccc3CCC(=O)Nc3ccc(Cl)cn3)sc2C1", 0.23),
    ("O=C(NCc1cccc(C(=O)O)c1NC(=O)c1nc2c(s1)COCC2)c1ccc(Cl)s1", -0.12),
    ("COc1cc(C(=O)O)cc(NC(=O)c2nc3c(s2)CN(C(C)C)CC3)c1CCC(=O)Nc1ccc(Cl)cc1", 1.15),
    ("CC(C)N1CCc2nc(C(=O)Nc3c(CCC(=O)Nc4ccc(Cl)cc4)cccc3C(=O)O)sc2C1", 0.66),
    ("CC(C)N1CCc2nc(C(=O)Nc3c(CNC(=O)c4ccc(Cl)s4)cccc3C(=O)O)sc2C1", 0.28),
    ("CC(C)N1CCc2nc(C(=O)Nc3cc(C(=O)O)ccc3CCC(=O)Nc3ccc(F)cc3)sc2C1", 0.27),
    ("CC(CF)N1CCc2nc(C(=O)Nc3cc(C(=O)O)ccc3CNC(=O)c3ccc(Cl)s3)sc2C1 (stereo not given)", 0.45),
    ("O=C(O)c1ccc(CNC(=O)c2ccc(Cl)s2)c(NC(=O)c2nc3c(s2)CN(C(CF)CF)CC3)c1", 0.44),
]

====

Listed here are molecules together with their documented remaining at 1 µM.
# Assay Protocol: Metabolic stability in human liver microsomes at 1 uM after 20 to 30 mins by LC/MS/MS analysis in presence of NADPH
# Type: ADME, Microsome
# Cond: read-out: Stability
Parameter: remaining at 1 µM (%)

# Molecule, Measured Number
measured = [
    ("COC(=O)c1ccc(CNC(=O)c2ccc(Cl)s2)c(NC(=O)c2nc3c(s2)CN(C)CC3)c1", 42),
    ("CC(C)N1CCc2nc(C(=O)Nc3cc(C(=O)O)ccc3CCC(=O)Nc3ccc(F)cc3)sc2C1", 94),
    ("CC(C)N1CCc2nc(C(=O)Nc3cc(C(=O)O)ccc3CCC(=O)Nc3ccc(Cl)cc3)sc2C1", 100),
    ("CC(C)Oc1cc(C(=O)O)cc(NC(=O)c2nc3c(s2)CN(C(C)C)CC3)c1CCC(=O)Nc1ccc(Cl)cc1", 86),
    ("CN1CCc2nc(C(=O)Nc3cc(C(=O)O)ccc3CNC(=O)c3ccc(Cl)s3)sc2C1", 71),
    ("O=C(NCc1cccc(C(=O)O)c1NC(=O)c1nc2c(s1)COCC2)c1ccc(Cl)s1", 57),
    ("CN1CCc2nc(C(=O)Nc3ccccc3CNC(=O)c3ccc(Cl)s3)sc2C1", 53),
    ("CN1CCc2nc(C(=O)Nc3cc(C(N)=O)ccc3CNC(=O)c3ccc(Cl)s3)sc2C1", 77),
    ("CN1CCc2nc(C(=O)Nc3ccc(C(=O)O)cc3CNC(=O)c3ccc(Cl)s3)sc2C1", 95),
    ("O=C(O)c1ccc(CNC(=O)c2ccc(Cl)s2)c(NC(=O)c2nc3c(s2)CN(C(CF)CF)CC3)c1", 100),
    ("CC(C)N1CCc2nc(C(=O)Nc3c(CCC(=O)Nc4ccc(Cl)cc4)cccc3C(=O)O)sc2C1", 100),
    ("CC(C)N1CCc2nc(C(=O)Nc3cc(C(=O)O)cc(Cl)c3CCC(=O)Nc3ccc(Cl)cc3)sc2C1", 93),
    ("CN1CCc2nc(C(=O)Nc3cc(C(=O)O)ccc3CCC(=O)Nc3ccc(Cl)cn3)sc2C1", 92),
    ("CN1CCc2nc(C(=O)Nc3c(CNC(=O)c4ccc(Cl)s4)cccc3C(=O)N(C)C)sc2C1", 81),
    ("CN1CCc2nc(C(=O)Nc3c(CNC(=O)c4ccc(Cl)s4)cccc3C(N)=O)sc2C1", 94),
    ("CN1CCc2nc(C(=O)Nc3cc(C(=O)O)ccc3CCC(=O)Nc3ccc(Cl)cc3)sc2C1", 95),
    ("CCN1CCc2nc(C(=O)Nc3cc(C(=O)O)ccc3CNC(=O)c3ccc(Cl)s3)sc2C1", 97),
    ("O=C(O)c1ccc(CNC(=O)c2ccc(Cl)s2)c(NC(=O)c2nc3c(s2)COCC3)c1", 82),
    ("CC(C)N1CCc2nc(C(=O)Nc3cc(C(=O)O)cc(F)c3CCC(=O)Nc3ccc(Cl)cc3)sc2C1", 100),
    ("CNC(=O)c1ccc(CNC(=O)c2ccc(Cl)s2)c(NC(=O)c2nc3c(s2)CN(C)CC3)c1", 85),
    ("COCC(C)N1CCc2nc(C(=O)Nc3cc(C(=O)O)ccc3CNC(=O)c3ccc(Cl)s3)sc2C1 (stereo not drawn)", 100),
    ("COc1cc(C(=O)O)cc(NC(=O)c2nc3c(s2)CN(C(C)C)CC3)c1CCC(=O)Nc1ccc(Cl)cc1", 87),
    ("CC(C)N1CCc2nc(C(=O)Nc3cc(C(=O)O)ccc3CNC(=O)c3ccc(Cl)s3)sc2C1", 96),
]

====

# Assay Protocol: Solubility of the compound in Japanese pharmacopoeia first fluid at pH 1.2 at 10 mM after 12 hrs
# Type: physicochemical

# Molecule, solubility at 12 h, 10000 µM, µg/mL
data = [
    ("COC(=O)c1ccc(CNC(=O)c2ccc(Cl)s2)c(NC(=O)c2nc3c(s2)CN(C)CC3)c1", 890),
    ("CN1CCc2nc(C(=O)Nc3c(CNC(=O)c4ccc(Cl)s4)cccc3C(=O)N(C)C)sc2C1", 900),
    ("CNC(=O)c1ccc(CNC(=O)c2ccc(Cl)s2)c(NC(=O)c2nc3c(s2)CN(C)CC3)c1", 140),
    ("CN1CCc2nc(C(=O)Nc3cc(C(N)=O)ccc3CNC(=O)c3ccc(Cl)s3)sc2C1", 30),
    ("CN1CCc2nc(C(=O)Nc3cc(C(=O)O)ccc3CCC(=O)Nc3ccc(Cl)cc3)sc2C1", 430),
    ("CN1CCc2nc(C(=O)Nc3cc(C(=O)NS(C)(=O)=O)ccc3CNC(=O)c3ccc(Cl)s3)sc2C1", 990),
    ("CCN1CCc2nc(C(=O)Nc3cc(C(=O)O)ccc3CNC(=O)c3ccc(Cl)s3)sc2C1", 230),
    ("CN1CCc2nc(C(=O)Nc3c(CNC(=O)c4ccc(Cl)s4)cccc3C(=O)O)sc2C1", 710),
    ("CC(C)N1CCc2nc(C(=O)Nc3cc(C(=O)O)ccc3CCC(=O)Nc3ccc(Cl)cc3)sc2C1", 490),
]

====

# Assay Protocol: AUC in monkey serum at 1 mg/kg, po by LC-MS/MS analysis
# Format: ADME, organism-based, Macaca mulatta
# Set-up: dose 1 mg/kg, route oral
# Cond: rhesus monkey
Lab note: compare AUC against 700 ng·h/mL. Equal or greater, write true. Smaller, write false.

# Molecule, Class Assignment
measured = [
    ("CC(C)N1CCc2nc(C(=O)Nc3cc(C(=O)O)cc(Cl)c3CCC(=O)Nc3ccc(Cl)cc3)sc2C1.Cl", "true"),
    ("CC(C)N1CCc2nc(C(=O)Nc3cc(C(=O)O)ccc3CNC(=O)c3ccc(Cl)s3)sc2C1.Cl", "false"),
    ("CC(C)N1CCc2nc(C(=O)Nc3cc(C(=O)O)ccc3CCC(=O)Nc3ccc(Cl)cn3)sc2C1.Cl", "true"),
    ("CN1CCc2nc(C(=O)Nc3ccccc3CNC(=O)c3ccc(Cl)s3)sc2C1.Cl", "false"),
    ("CC(C)N1CCc2nc(C(=O)Nc3cc(C(=O)O)ccc3CCC(=O)Nc3ccc(Cl)cc3)sc2C1.Cl", "true"),
    ("CN1CCc2nc(C(=O)Nc3cc(C(=O)O)ccc3CNC(=O)c3ccc(Cl)s3)sc2C1.Cl", "false"),
    ("CC(C)N1CCc2nc(C(=O)Nc3c(CNC(=O)c4ccc(Cl)s4)cccc3C(=O)O)sc2C1.Cl", "false"),
    ("CC(C)N1CCc2nc(C(=O)Nc3cc(C(=O)O)cc(F)c3CCC(=O)Nc3ccc(Cl)cc3)sc2C1.Cl", "false"),
    ("CN1CCc2nc(C(=O)Nc3c(CNC(=O)c4ccc(Cl)s4)cccc3C(N)=O)sc2C1.Cl", "false"),
]

====

# Assay Protocol: Cmax in monkey serum at 1 mg/kg, po by LC-MS/MS analysis
# Assay type: ADME, organism-based, Macaca mulatta
# Parameters: dose 1 mg/kg, route oral
# Cond: rhesus monkey
Listed here are molecules together with their documented Cmax.
Parameter: Cmax (ng/mL)

# Molecule, Measured Number
records = [
    ("CC(C)N1CCc2nc(C(=O)Nc3cc(C(=O)O)ccc3CNC(=O)c3ccc(Cl)s3)sc2C1.Cl", 67.1),
    ("CN1CCc2nc(C(=O)Nc3ccccc3CNC(=O)c3ccc(Cl)s3)sc2C1.Cl", 95.9),
    ("CN1CCc2nc(C(=O)Nc3c(CNC(=O)c4ccc(Cl)s4)cccc3C(N)=O)sc2C1.Cl", 109),
    ("CC(C)N1CCc2nc(C(=O)Nc3cc(C(=O)O)cc(Cl)c3CCC(=O)Nc3ccc(Cl)cc3)sc2C1.Cl", 67),
    ("CC(C)N1CCc2nc(C(=O)Nc3c(CNC(=O)c4ccc(Cl)s4)cccc3C(=O)O)sc2C1.Cl", 50.5),
    ("CN1CCc2nc(C(=O)Nc3cc(C(=O)O)ccc3CNC(=O)c3ccc(Cl)s3)sc2C1.Cl", 25.8),
    ("CC(C)N1CCc2nc(C(=O)Nc3cc(C(=O)O)ccc3CCC(=O)Nc3ccc(Cl)cc3)sc2C1.Cl", 87),
    ("CC(C)N1CCc2nc(C(=O)Nc3cc(C(=O)O)ccc3CCC(=O)Nc3ccc(Cl)cn3)sc2C1.Cl", 98),
    ("CC(C)N1CCc2nc(C(=O)Nc3cc(C(=O)O)cc(F)c3CCC(=O)Nc3ccc(Cl)cc3)sc2C1.Cl", 32),
]
